Target: human melanocortin 1 receptor (human, UniProt Q01726 1-317)
Sequence (Q01726 whole entry): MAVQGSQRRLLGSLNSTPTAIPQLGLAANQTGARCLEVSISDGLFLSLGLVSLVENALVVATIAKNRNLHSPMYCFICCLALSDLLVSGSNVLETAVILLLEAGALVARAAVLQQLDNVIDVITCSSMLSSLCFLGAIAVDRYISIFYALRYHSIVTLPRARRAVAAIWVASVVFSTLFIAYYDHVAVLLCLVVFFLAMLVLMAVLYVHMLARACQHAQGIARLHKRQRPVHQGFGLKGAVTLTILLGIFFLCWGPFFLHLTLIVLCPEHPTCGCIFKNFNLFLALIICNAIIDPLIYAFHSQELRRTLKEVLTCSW
Assay: cell-based or functional assay
Positions of bridges follow the written chain, without caps; N, C: chain ends. Non-standard residues stand in square brackets, D forms with d. Api = NC1(C(=O)O)CCNCC1

| binder | measurement_unit | bound_operator | MC1R cAMP EC50 |
| --- | --- | --- | --- |
| cyclo(C[Api]H[dF]RWC[Api]H[dF]RW) (disulfide 1-7; SMILES N=C(N)NCCC[C@@H]1NC(=O)[C@@H](Cc2ccccc2)NC(=O)[C@H](Cc2c[nH]cn2)NC(=O)C2(CCNCC2)NC(=O)[C@@H]2CSSC[C@H](NC(=O)[C@H](Cc3c[nH]c4ccccc34)NC1=O)C(=O)NC1(CCNCC1)C(=O)N[C@@H](Cc1c[nH]cn1)C(=O)N[C@H](Cc1ccccc1)C(=O)N[C@@H](CCCNC(=N)N)C(=O)N[C@@H](Cc1c[nH]c3ccccc13)C(=O)N2, also called c[c[Cys-ACP-His-D-Phe-Arg-Trp-Cys]-ACP-His-D-Phe-Arg-Trp]) [Chem. 47] | nM | = | 2.79 |
| cyclo(CH[dF]RWCH[dF]RW) (disulfide 1-6; SMILES N=C(N)NCCC[C@@H]1NC(=O)[C@@H](Cc2ccccc2)NC(=O)[C@H](Cc2c[nH]cn2)NC(=O)[C@@H]2CSSC[C@H](NC(=O)[C@H](Cc3c[nH]c4ccccc34)NC1=O)C(=O)N[C@@H](Cc1c[nH]cn1)C(=O)N[C@H](Cc1ccccc1)C(=O)N[C@@H](CCCNC(=N)N)C(=O)N[C@@H](Cc1c[nH]c3ccccc13)C(=O)N2, also called c[c[Cys-His-D-Phe-Arg-Trp-Cys]-His-D-Phe-Arg-Trp]) [Chem. 49] | nM | > | 5.5 |
